As shown below, each of these compounds has a reported CC50 value.
test.details: Cytotoxicity against human HeLa cells assessed as reduction in cell viability by MTT assay
Type: toxicity, cell-based

structure.notation | CC50
COC(=O)c1cc(Nc2nc(-c3sc(NC(=O)c4ccccc4)nc3C(F)(F)F)cs2)cc(C(F)(F)F)c1 | 22.9 µM
O=C(Nc1nc(C(F)(F)F)c(-c2csc(Nc3cccc(C(F)(F)F)c3)n2)s1)c1ccccc1 | > 50 µM
O=C(Nc1nc(C(F)(F)F)c(-c2csc(Nc3ccc(O)c(C(=O)O)c3)n2)s1)c1ccccc1 | > 50 µM

Recorded CC50 (compound CC(C)(C)C(=O)Nc1nc(C(F)(F)F)c(-c2c[nH]c(Nc3cccc(C(F)(F)F)c3)n2)s1 ): > 50 µM

====

Test system: Staphylococcus aureus
test.details: Antibacterial activity against Staphylococcus aureus ATCC 25923 assessed as reduction in microbial growth measured after 18 hrs by CLSI based broth microdilution method
Format: functional
test.readout: MIC

Consider the reported MIC for these compounds:
structure.notation | MIC
CC(C)(C)C(=O)Nc1nc(C(F)(F)F)c(-c2csc(Nc3cccc(C(F)(F)F)c3)n2)s1 | 8 µg/mL
CC(C)(C)C(=O)Nc1nc(C(F)(F)F)c(-c2csc(Nc3cccc(C(F)(F)F)n3)n2)s1 | 32 µg/mL
O=C(Nc1nc(C(F)(F)F)c(-c2csc(Nc3cccc(C(F)(F)F)c3)n2)s1)c1ccccc1 | > 32 µg/mL
O=C(O)c1cc(Nc2nc(-c3sc(NC(=O)c4ccccc4)nc3C(F)(F)F)cs2)cc(C(F)(F)F)c1 | > 32 µg/mL

Measured on Staphylococcus aureus, CC(C)(C)C(=O)Nc1nc(C(F)(F)F)c(-c2csc(Nc3cc(C(=O)O)cc(C(F)(F)F)c3)n2)s1 has a documented MIC of 16 µg/mL

Measured on Staphylococcus aureus, COC(=O)c1cc(Nc2nc(-c3sc(NC(=O)c4ccccc4)nc3C(F)(F)F)cs2)cc(C(F)(F)F)c1 has a documented MIC of > 32 µg/mL

Measured on Staphylococcus aureus, CC(C)(C)C(=O)Nc1nc(C(F)(F)F)c(-c2c[nH]c(Nc3cccc(C(F)(F)F)c3)n2)s1 has a documented MIC of > 32 µg/mL

Measured on Staphylococcus aureus, CC(C)(C)C(=O)Nc1nc(C(F)(F)F)c(-c2csc(Nc3cc(C(=O)O)cc(C(=O)O)c3)n2)s1 has a documented MIC of > 32 µg/mL

====

System: rhinovirus A16
test.details: microbe, parasite or virus in culture
cond: Rhinovirus A, HeLa, 48 h
Description: Antiviral activity against Human rhinovirus 16 infected in human HeLa cells assessed as inhibition of viral replication measured after 48 hrs
As shown below, each of these compounds has a reported EC50 value.
Lab book: enter the figure in nM, no units written.

compound | unit.spec | EC50
CC(C)S(=O)(=O)n1c(N)nc2ccc(/C(=N/O)c3ccccc3)cc21 [ENVIROXIME] | nM | 49

Next:
Recorded EC50 (compound CCOC(=O)/C=C/[C@H](C[C@@H]1CCNC1=O)NC(=O)[C@@H](CC(=O)[C@@H](NC(=O)c1cc(C)on1)C(C)C)Cc1ccc(F)cc1 [RUPINTRIVIR] ): 2

====

As shown below, each of these compounds has a reported MBC value.
Tested on: Staphylococcus aureus
test.details: Bactericidal activity against Staphylococcus aureus ATCC 25923 assessed as reduction in microbial growth measured after 18 hrs by CLSI based broth microdilution method
Assay type: functional
Lab book: enter the figure in µg/mL, no units written.

structure.notation | observed.result
CC(C)(C)C(=O)Nc1nc(C(F)(F)F)c(-c2csc(Nc3cccc(C(F)(F)F)c3)n2)s1 | 32

Recorded MBC (compound O=C(Nc1nc(C(F)(F)F)c(-c2csc(Nc3ccc(O)c(C(=O)O)c3)n2)s1)c1ccccc1 ): 32
